Target: Metabotropic glutamate receptor 8 (Rattus norvegicus) (UniProt P70579)
Sequence (P70579 whole entry, looked up): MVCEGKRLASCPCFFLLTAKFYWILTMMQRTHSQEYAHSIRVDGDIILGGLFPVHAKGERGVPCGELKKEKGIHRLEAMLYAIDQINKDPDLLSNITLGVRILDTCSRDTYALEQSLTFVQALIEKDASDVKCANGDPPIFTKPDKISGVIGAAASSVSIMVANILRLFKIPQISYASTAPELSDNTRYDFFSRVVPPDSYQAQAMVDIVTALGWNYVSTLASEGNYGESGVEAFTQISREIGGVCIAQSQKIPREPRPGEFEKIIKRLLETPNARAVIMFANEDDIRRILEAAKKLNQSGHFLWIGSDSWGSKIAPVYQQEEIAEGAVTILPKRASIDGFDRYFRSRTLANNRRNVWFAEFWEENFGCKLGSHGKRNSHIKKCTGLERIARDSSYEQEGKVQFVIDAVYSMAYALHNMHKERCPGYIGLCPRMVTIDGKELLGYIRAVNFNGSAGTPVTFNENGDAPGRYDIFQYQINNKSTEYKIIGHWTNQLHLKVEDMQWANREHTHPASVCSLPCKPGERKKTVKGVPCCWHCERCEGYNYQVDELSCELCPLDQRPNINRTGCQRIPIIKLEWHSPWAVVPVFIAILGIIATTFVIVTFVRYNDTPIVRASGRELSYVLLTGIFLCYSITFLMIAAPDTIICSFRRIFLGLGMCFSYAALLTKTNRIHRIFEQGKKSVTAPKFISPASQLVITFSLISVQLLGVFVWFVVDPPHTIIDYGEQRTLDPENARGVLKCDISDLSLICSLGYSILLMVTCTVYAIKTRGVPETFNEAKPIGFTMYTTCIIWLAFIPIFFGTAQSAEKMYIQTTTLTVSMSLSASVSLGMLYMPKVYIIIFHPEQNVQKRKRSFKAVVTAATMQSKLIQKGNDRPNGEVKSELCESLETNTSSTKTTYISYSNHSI
Experiment: mGluR8 Gi/Go-coupled signaling modulation – cell-based, rat, thallium flux, HTS, primary screen (AID 488969)
Settings: HEK293 rat mGluR8, GIRK thallium flux, FluoZin2; at 10 µM; stronger effect = higher value; submaximal glutamate (EC20) added with thallium
Whole data set: some 110,000 compounds, median “z-score” near -0.1, cut for the highest 2% near 2. For the sample, the highest values were picked, then their nearest neighbours and some compounds at random.
OBSERVABLE: z-score
One number for each entry.

Worked cases, z-score given:
| COMPOUND | OBSERVABLE | ASSAY RESULT |
| --- | --- | --- |
| COc1ccc(CNCCC(c2ccccc2)c2ccc3c(c2)OCO3)cc1 (stereo not given) | z-score | 2.28 |
| COCCN1C(=O)c2ccccc2C(C(=O)NCC2CCCO2)C1c1c[nH]c2ccccc12 (stereo not given) | z-score | -0.121 |
| O=C(O)C1CCCCN1S(=O)(=O)c1ccc2ccccc2c1 (stereo not given) | z-score | -0.217 |
| O=C(Nn1cnnc1)c1ccccc1CCc1ccccc1 | z-score | 0.0675 |
| COc1ccc(C(CCNC(C)c2ccccc2)c2ccc(F)cc2)cc1 (stereo not given) | z-score | 1.71 |
| COc1ccc(NC(=O)CC(c2ccc(F)cc2)c2ccc(OC)cc2)cc1 (stereo not given) | z-score | -0.576 |

Report z-score for every entry below.
1. COc1ccc(CNCCC(c2ccc(F)cc2)c2ccc(OC)cc2)cc1 (stereo not given)
2. COc1cc(CNc2ccc(N3CCCC3)cc2)ccc1OCc1ccccc1F
3. OCCNCCOc1ccccc1-c1ccccc1
4. S=C(c1ccccc1)N1CCCc2ccccc21
5. Cc1ccc(NC(=O)CSc2nnc(-c3ccncc3)n2C)cc1C
6. COc1ccccc1C(=O)NC(=S)N1CCCc2ccccc21
7. CCOC(=O)C1CCN(CCC(=O)Nc2cccc(Cl)c2C)CC1
8. O=C(NC1CC1)C1CCCN1S(=O)(=O)c1ccc2ccccc2c1 (stereo not given)

-- reply
3.72
-0.289
-0.00757
-0.863
-0.215
-0.0293
0.732
-0.112

Hey, quick one: what's z-score for each of these?
1. COc1ccc(C(CCNCc2ccccc2F)c2ccc(F)cc2)cc1 (stereo not given)
2. COc1ccc(C(CCNCc2ccccc2)c2ccc(F)cc2)cc1 (stereo not given)
3. O=C(NC(=S)N1CCCc2ccccc21)c1ccccc1
4. COCCNCCOc1ccccc1-c1ccccc1
5. CC1CCCCC1NC(=O)COC(=O)c1ccc2c(c1Cl)C(=O)c1ccccc1C2=O (stereo not given)
6. CCOC(=O)c1cc(-c2ccc(C#N)cc2)nc2c1c(C)nn2CCC#N

-- reply
3.61
1.8
4.54
3.67
-0.0566
-0.234

====

Biological target: Metabotropic glutamate receptor 8 (Rattus norvegicus) (UniProt P70579)
Assay: mGluR8 Gi/Go-coupled signaling modulation – cell-based, rat, thallium flux, HTS, primary screen (AID 488969)
Conditions: HEK293 rat mGluR8, GIRK thallium flux, FluoZin2; at 10 µM; stronger effect = higher value; submaximal glutamate (EC20) added with thallium
In all, about 110,000 compounds were measured (“z-score”: median about -0.1, highest 2% from about 2 on). The full list was thinned out, with the highest values kept by preference.
OBSERVABLE: z-score
Answers are plain numbers.

| COMPOUND | STUDY TARGET | z-score |
| --- | --- | --- |
| CC(C)(C)C(=O)NC1(C(F)(F)F)N=C2SCCN2C1=O (centres undefined) | Metabotropic glutamate receptor 8 (Rattus norvegicus) (UniProt P70579) | -0.137 |
| CC(C)(C)C(=O)CN1C(=O)C2(OCCO2)c2ccccc21 | Metabotropic glutamate receptor 8 (Rattus norvegicus) (UniProt P70579) | 0.508 |
| CC1CCN(CCCn2c(=S)[nH]c3ccccc3c2=O)CC1 | Metabotropic glutamate receptor 8 (Rattus norvegicus) (UniProt P70579) | 0.0115 |
| O=C(Nc1nccs1)c1ccc2nccnc2c1 | Metabotropic glutamate receptor 8 (Rattus norvegicus) (UniProt P70579) | 0.133 |
| C=C(C)CNC(=S)N/N=C/C1=CCC2CC1C2(C)C (centres undefined) | Metabotropic glutamate receptor 8 (Rattus norvegicus) (UniProt P70579) | 0.611 |

Consider the following items and state reported z-score for each.
1. CCOC(=O)c1ccccc1NC(=O)c1cccc(F)c1
2. O=C(CCC(=O)c1ccc(F)cc1)Nc1ccccc1Cl

-- reply
1. 0.0409
2. 0.266

For the 8 compounds below, give their z-score values.
1. COc1ccc(N2CCN(CCNC(=O)Nc3ccc(Cl)cc3)CC2)cc1
2. Cc1cnc(NC(=O)COc2cccc3c2OC(C)(C)C3)s1
3. CC(C)C(=O)NC(=S)N(Cc1ccccc1)Cc1ccccc1
4. Cc1ccc(N(C(C)C(=O)Nc2ccc(S(=O)(=O)N3CCOCC3)cc2)S(C)(=O)=O)cc1 (centres undefined)
5. CC(C)(C)c1csc(NC(=O)c2ccc3nccnc3c2)n1
6. CC1(C)C2CC=C(/C=N/NC(=O)c3ccc(Cl)cc3)C1C2 (centres undefined)
7. CCN1CCN(CCCNC(=O)c2cc3c(=O)[nH]c4ccccc4c3s2)CC1
8. COC(=O)C1C2C=CC3(CN(Cc4ccco4)C(=O)C13)O2 (centres undefined)

-- reply
0.451
0.713
9.57
0.137
5.29
0.355
0.477
0.49

Please go through the list and note z-score for each compound.
1. CCN(CC)CCCn1c(=S)[nH]c2ccccc2c1=O
2. Cc1ccc(C(=O)N/C(=C/c2ccco2)C(=O)Nc2cccc(C)c2)cc1

-- reply
[0.126, -0.287]

List reported z-score for each of these compounds:
1. COc1ccc(NC(=O)CCNC(=O)Cn2cnc3ccccc3c2=O)c(OC)c1
2. O=C(Nc1ccccc1C(=O)O)c1cccc(F)c1
3. Cc1ccc(C(=O)c2ccccc2C(=O)O)c(O)c1

-- reply
1. -0.512
2. -0.262
3. 0.0184

Parameter requested: z-score. Apply to each item below.
1. O/N=C/c1cc(Br)ccc1OCc1ccc(F)cc1
2. c1ccc2c(c1)c1ccccc1n2CN1CCOCC1
3. CC(C)CC(=O)NC(=S)N(Cc1ccccc1)Cc1ccccc1
4. O=C(O)C1C2C=CC(C2)C1C(=O)NCCc1ccccc1 (centres undefined)
5. Cc1ccc(OCCCCn2cnc3ccccc32)c(C)c1
6. Cc1cc(C)c2nc(SCC(=O)N3CC(=O)Nc4ccccc43)c(C#N)cc2c1
7. O=C(CC(=O)c1ccccc1O)c1cccc(F)c1
8. COc1ccc(NC(=O)Nc2ccc(Br)cn2)cc1OC

-- reply
[-0.142, -0.144, 8.66, -0.122, -0.0373, -0.188, 3.63, -0.221]

-- ask Would you mind telling me what z-score value was observed for CC(C)C(=O)NC(C)C(c1cccs1)N1CCN(C)CC1 (centres undefined) ?
-- reply 0.199

====

Biological target: Metabotropic glutamate receptor 8 (Rattus norvegicus) (UniProt P70579)
Experiment: mGluR8 Gi/Go-coupled signaling modulation – cell-based, rat, thallium flux, HTS, primary screen (AID 488969)
Details: HEK293 rat mGluR8, GIRK (G protein-gated inwardly rectifying potassium channel) thallium flux, FluoZin2; at 10 µM; stronger effect = higher value; submaximal glutamate (EC20) added with thallium
Over roughly 110,000 compounds, “z-score” has its median near -0.1; the highest 2% begin near 2. Shown is part of a subset that was picked to be rich in the highest values.
Parameter class (string): assigned from measured z-score. Ranges: band 1: < -0.3; band 2: ≥ -0.3 and < 0.02; band 3: ≥ 0.02

Reference set (2 entries):
| COMPOUND | CLASS LABEL |
| --- | --- |
| OC1(c2ccc3ccccc3c2)CCN(Cc2ccccc2)C1 (stereo not drawn) | band 3 |
| Cc1ccc(CSc2ncnc3c2cnn3-c2ccccc2)cc1 | band 3 |

-- ask Exam item: assign CC(C)(C)c1cc[n+](/C(C(=S)NC2CC2)=C(/[O-])c2ccc(Cl)s2)cc1 to the correct category.
-- reply band 2

-- ask Try the compound Cc1ccccc1NC(=S)/C(=C(\[O-])c1ccc(C)c([N+](=O)[O-])c1)[n+]1ccccc1
-- reply band 2

-- ask Same thing, different compound: O=C(Nc1cnc2ccccn2c1=O)c1ccc(F)cc1
-- reply band 2

-- ask Now give it for Cc1cccc(CSc2ncnc3c2cnn3Cc2ccccc2)c1 too.
-- reply band 1

-- ask Would you kindly repeat that for Cc1cc2ccccc2c(=O)n1CC(=O)NCC1COc2ccccc2O1 (stereo not drawn) ?
-- reply band 2

-- ask What would you report for N#C/C(=C\c1c(N(Cc2ccccc2)Cc2ccccc2)nc2ccccn2c1=O)C(N)=O ?
-- reply band 1

-- ask Same thing, different compound: c1ccc(CSc2ncnc3c2cnn3Cc2ccccc2)cc1
-- reply band 1

-- ask Can you check COc1ccc(C(C)=O)cc1CN1C(=O)C(C)N(c2ccc(C)cc2)C1=O (stereo not drawn) next?
-- reply band 2

-- ask Param item: NC(=O)CSc1ncnc2c1cnn2Cc1ccccc1
-- reply band 3

-- ask Okay, and Cc1sc2nc(C(C)C)nc(SCC(=O)N3c4ccccc4CC3C)c2c1C (stereo not drawn) ?
-- reply band 3

Data origin: PubChem BioAssay AID488969
